Reference source for all entries: patent US20110293610A1

# measured.target: T1, B Lymphocyte Stimulator, soluble form (human) (human, UniProt Q9Y275 134-285, biotinylated with NHS-biotin where used as biotinylated B Lymphocyte Stimulator)
# T1 construct: Coated on plastic, captured on streptavidin plates, amine-coupled to a CM5 chip or free in solution, depending on the assay; also called BLyS; immobilized B Lymphocyte Stimulator
# measurement.description: phage ELISA
observed.property: binding result

I075A02 (scFv) scFv: QVQLVQSGAEVKKPGSSVKVSCRASGGSFNHAISWVRQAPGRGLEWMGGILPMYGTANYAQKFQGRVTITADKLTNTVYMDLSRLRYEDTAVYYCARELGLSIVGATTGALDMWGRGTLVTVSSGGGGSGGGGSGGGGSAQSVVTQPPSASGTPGQRVTVSCSGGRSNIGSNTVSWYQQLPGTAPKLLIYSNDERPSGVPDRFSGSNSGTSASLAISGLQSEDEADYYCAAWDDSLNGVAFGGGTKLTVLG
binds
I078D02 (scFv) scFv: QVQLQQSGAEVKKPGASVKVSCKASGYTFTSYGISWVRQAPGQGLEWMGWISAYNGNTNYAQKLQGRVTMTTDTSTSTAYMELRSLRSDDTAVYYCARVYYDILTGYNLFFDYWGKGTMVTVSSGGGGSGGGGSGGGGSQSVLTQPASVSGSPGQSITISCTGTSSDVGGYNYVSWYQQHPGKAPKLMIYEGSKRPSGVSNRFSGSKSGNTASLTISGLQAEDEADYYCSSYTTRSTRVFGGGTKLTVLG
binds
I002A01-K (scFv) scFv: QVQLVQSGAEVKKPGSSVKVSCRASGGSFNKHAISWVRQAPGRGLEWMGGILPMYGTANYAQKFQGRVTITADKLTNTVYMDLSRLRYEDTAVYYCARELGLSIVGATTGALDMWGKGTLVTVSSGGGGSGGGGSGGGGSALPVLTQPPSVSVAPGQTATLTCGGTNFGRQSVHWYQQKPGQAPVLAIYHDDVRPSGIPERLSGSKSGNTATLTISRVEAGDEAAYYCQVWDSGSDVVVFGGGTKLTVLG
binds
